The values you see were collected from patent US20240158475A1.

Target: DN-III quality control recombinant protein (produced by Fapon Biotech InC.) (dengue virus)
Experiment: BLI, AMC sensor, antibody captured
The entries below come with measured koff values attached.
Output should be the measured figure followed by the unit it is expressed in.

>  <binder>
Mutation 1-4 (antibody, V domains shown) VH: EVQLQQSGTELVRPGALVKLSCKASGFNIKDYYIHWVKQRPRQGLEWIGWIDPENGKTLYDPKFQDKASITSDTSTNTAYLQLRSLTSEDTAVYYCVSAYFRFVYWGQGTLVTVSA VL: QIVLTQSPAIMSAFPGERVTMTCSASSSVRYMYWHQQKPGSSPRLLIYDTSNLASGVPVRFSGSGSGTSYSLTISRDEAMDAATYYCQQWSSYPRTFGGGTKLEIKR

>  <test_value>
1.04e-05 s⁻¹

$$$$

// switching to the query binder
Report koff for Mutation 1-37 (antibody, V domains shown) VH: EVQLQQSGTELVRPGALVKLSCKASGFNIKDYYIHWVKQRPRQGLEWIGWIDPENGKTLYDPKFQDKASITSDTSTNTAYLQLRSLTSEDTAVYYCVSAYYRFVYWGQGTLVTVSA VL: QIVLTQSPAIMSAFPGERVTMTCSASTSVRYMYWHQQKPGSSPRLLIYDTSNVASGVPVRFSGSGSGTSYSLTISRDEAMDAATYYCQQWSSTPRTFGGGTKLEIKR please.
1.71e-05 s⁻¹
